Test system: Escherichia coli TOP10;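 note: peptides expressed intracellularly from a pBAD plasmid library in pooled LB shake-flask culture, induced with 0.3% L-arabinose, DNA abundance read by NGS, three biological replicates, DESeq2 with apeglm shrinkage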
Test: shrunken log2 fold change of peptide-encoding DNA abundance (4.5 h post-induction vs induction); higher = less antimicrobial activity (less host growth inhibition)
Details: time post-induction: 4.5 h; library: site-saturation at positions 5, 18, 19, 20
I'd be grateful if you could share measured shrunken log2 fold change for these entries.
Numbers only.

A selection of reference data follows.
RRIRHRPPRLPRPRPRPNNMPRP: -0.674
RRIRARPPRLPRPRPRPQAVPRP: 0.0772
RRIRRRPPRLPRPRPRPVWYPRP: 0.18
RRIRMRPPRLPRPRPRPECLPRP: 1.6
RRIRVRPPRLPRPRPRPVVVPRP: -0.194
RRIRWRPPRLPRPRPRPYQQPRP: -0.0018

List the reported shrunken log2 fold change of each sequence below.
1. RRIRFRPPRLPRPRPRPMICPRP
2. RRIRRRPPRLPRPRPRPFARPRP
3. RRIRVRPPRLPRPRPRPTFYPRP
4. RRIRTRPPRLPRPRPRPHCYPRP

-0.303
0.217
-0.145
-0.136

Give measured shrunken log2 fold change for every item shown.
1. RRIRWRPPRLPRPRPRPMFQPRP
2. RRIRFRPPRLPRPRPRPTGWPRP
3. RRIRCRPPRLPRPRPRPAAMPRP
4. RRIRIRPPRLPRPRPRPSYPPRP

1. -0.241
2. 0.456
3. 0.281
4. -0.56

For each entry beneath this line, provide reported shrunken log2 fold change.
1. RRIRDRPPRLPRPRPRPGTVPRP
2. RRIRARPPRLPRPRPRPMCMPRP
3. RRIRKRPPRLPRPRPRPYLKPRP
4. RRIRPRPPRLPRPRPRPRWKPRP
5. RRIRQRPPRLPRPRPRPIPRPRP
6. RRIRYRPPRLPRPRPRPEGEPRP
7. RRIRKRPPRLPRPRPRPNATPRP

1: 0.118; 2: 0.272; 3: -0.525; 4: 0.176; 5: 0.145; 6: 0.199; 7: 1.16

// for each sequence in input: emit shrunken log2 fold change
1. RRIRDRPPRLPRPRPRPLKIPRP
2. RRIRFRPPRLPRPRPRPHPQPRP
3. RRIRHRPPRLPRPRPRPELTPRP
4. RRIRSRPPRLPRPRPRPEQCPRP

-0.297
0.246
0.054
-0.00373
